- protocol: yeast display, Sf9 membrane polyspecificity reagent, FACS + sequencing; frameworks hold sequencing errors
measurementName: polyreactivity (PSR sort gate)

See these solved cases before continuing.
QVQLVESGGGLVQAGGSLRLRCADSGFTLDVYAMGWYRQAPGKERELVAATSRSAGSTYYADSVKGRFTSSRDNAKNTVYLQMNSLKPEETDVYYCGARYPPRFGVVRGYSYYHTSTYSWGQGTQVTVSS    high polyreactivity
QVQLVESGGGLVQAGGSLRLSCAASGSILYIYAMGWYRQAPGKERELVAAISKNSADTYYADSVKGRFTISRDNAKNTVYLQMNSLKPEDTAVYYCAADVVKVAAYNYWGQGSQVTVSS    low polyreactivity
QVQLVESGGGLVQAGGSLRLSCAASGLIFYIYMGWYRQAPGKESELVAVISSSGNSTYYADSVKGRFTISRYNAKNTVYLQLNSLKPEDTAVYYCNASAYYPPSSSRYYYWGQGTQVTVSS    low polyreactivity
QVHLVESGGGLVQAGGSLRLSCAASGRTFRYYAMGWYRQAPGKERELVAAITGSGGRTYYADSVKGRFTISRDNAKNTVYLQMNTLKPEDTAVYYCNRDPDIYICYDYWGQGTQVTVSS    high polyreactivity
QVQLVESGGGLVQAGGSLRLSCAASGSTFVGYAMGWYRQAPGKERELVADIDSIGGSTYYADSVKGRFTISRDNAKNTVYLQMNSLKPEDTAVYYCAAYQHPGLRTSYEYWGQGTQVTVSS    low polyreactivity
QVQLVESGGGLVQAGGSLRLSCAASRRIFSDNAMGWNRKAPGKERELVAAITFRDGSTYADSVKGRFTISRDNAKNTVYLPMNSLKPEDTAVYYCNRRSQVHSHSKHDYWGQGTQVTVSS    low polyreactivity
QVQLVESGGGLVQAGGSLRLSCAASGSIIYTNAMGRYRQAPGKEREVVAAITGTTTTNYADSVKGRFTISRDNAKNTVYVQMNSLKPEDTAVYYCNADYDRSRVYYSVELYDYWGQGTQVTVSS    low polyreactivity
QVQLVESGGGLVQAGGSLRLSCAASGFTFHRNAMGWYRQAPGKERELVAAISTRGGSTAYADSVKGRFTISRDTAKNNVYLQMNSLKPEDTAVYYCNTRYVGQRSTWVDQVRRYDYWGQGTQVTVSS    high polyreactivity
QVQLGESGGGLVQAGGSLRLSCAASGSTFGRYVMGWYRQAPAKERELVDAISKNAGSTYYADSVKGRFTISRDIAKKTVYLQMNSLKPEDTAVYYCAADWRTKGYDSLGQGTQVTVSS    high polyreactivity
QVQLVESGGGLVQAGGSLRLSCAASGRTFYAYAMGWYRQAPGKERELVAAINTSGGRTYYADSVKGRFTISRDNAKNTVYLLMNSLKPEDTAVYYCAADVFTFYPRRYDYWGQGTQVTVSS    low polyreactivity

Now consider a different sequence.
Field request: polyreactivity (PSR sort gate) | item: `QVQLVESGGGLVQAGGSLRLSCAASGNIFSINAMGWYRQAPGKERELVAAISWSGGSTYYADSVKGRFTISRDNAKNTVYLQMNSLKPEDTAVYYCAADVYYLGYYEYYYWGQGTQVTVSS` high polyreactivity

====

- protocol: yeast display, Sf9 membrane polyspecificity reagent, FACS + sequencing; frameworks hold sequencing errors
measurementName: polyreactivity (PSR sort gate)

QVQLVESGGGLVQAGGSLRLRCAASGRTFQYNAMGWYRQAPGKESELVAANTSNGGSTYYADSVKGRFTISRDNAKNTVYLQMNSLNPEDTAVYYCAKAYRYVDRGYRLLRYGFWGQGTQVTVSS    high polyreactivity
QVQLVESGGGLVQAGGSLRLSCAASGFTFTAYARGWYRQAPGKERELVAAINWSGSRTSYADSVKGRFTISRDNAKNTVYLQMNSLKPEDTAVYYCNPATSKSSYRHYDYWGQGTQVTVSS    high polyreactivity
QVQHVESGGGLVQAGGSLRLSCAASGRTFVTYAMGWYRQAPGKERELVAAISKRGSRTYYADSVKGRFTISRDNAKNTVYLQMNSLKPEDTAVYYCNADPYRTSYDYWGQGTQVTVSS    high polyreactivity
